This collection of values is drawn from patent US20170088617A1.

study.target: T1, cynomolgus CD33 on the recombinant HEK293-cynomolgusCD33 cell line (cynomolgus, UniProt A0A7N9ICR5 17-359)
T1 construct: whole, on cells
procedure.details: FACS Scatchard analysis on HEK293-cynomolgusCD33 cells
Experimental: Fourteen CD33 binding agents (fully human monoclonal antibodies as listed in table 1 as No. 1-14, respectively) to human and cynomolgus CD33 were determined by FACS Scatchard analysis as described in Brockhoff et al., (Cytometry. 1994 Sep. 1; 17(1):75-83) on CD33 expressing cells (AML-derived HL60 cell line, recombinant HEK293-cynomolgusCD33 cell line). […] All samples were measured using the same FACS parameters. […]
Reported pKd values follow for various binders
On this scale, pKd is minus log10 of a concentration expressed in M (mol/L).

[in] So what's the measured pKd for this one? 280-50-01 (antibody, human IgG1, kappa, V domains shown, Fully human monoclonal antibody; also called No 7; Clone ID# 280-50-01) VH: QVQLVQSGAEVKKPGSSVKVACKASGDTFSSYAISWVRQAPGQGLEWMGRVIPIIGIASYAQNFQGRVTITADRSTSTAYMALSSLRSEDTAVYYCARNWADAFDIWGQGTMVTVSS VL: DIQLTQSPSSLSASVGDRVTITCRASQGISSVLAWYQQKPGKAPKLLIYAASSLESGVPSRFSGSGSGTDFTLTISSLQPEDFATYYCQQFNSSITFGQGTKVEIKR
[out] 9.30

Continuing:
[in] So what's the measured pKd for this one? 280-34-02 (antibody, human IgG1, kappa, V domains shown, Fully human monoclonal antibody; also called No 6; Clone ID# 280-34-02) VH: QVELVQSGAEVQKPGSSVKVSCKASGDTFSSYAISWVRQAPGQGLEWMGRIIPIVGIVNYAEKFQGRVTITADKSMSTAYMELSSLRSEDTAVYYCARNWADAFDIWGQGTMVTVSS VL: DIQLTQSPSSLSASVGDRVTITCRASQGISSALAWYQQKPGKAPKLLIYDASRLESGVPSRFSGSGSGTDFTLTISSLQPEDFTTYYCQQFNSSYTFGQGTKLEIKR
[out] 9.30
